pIC50 values by entry
# subject-of-test: UniProtKB P48736
# assay-comment: Transcreener KINASE Assay, kinase inhibition of p110γ
# Format: biochemical
# details: read-out: PI3Kγ IC50
# pIC50: negative log10 of molar concentration; output just the value

Solved entries (count: 3):
N#Cc1c(N)ncnc1N1CC[C@H]1c1nn2ccc(Br)c2c(=O)n1-c1ccccc1 [Compound 194] | 6.82
CC(Nc1nc(N)ncc1C(F)(F)F)c1cn2ccc(Cl)c2c(=O)n1-c1cccc(F)c1 (stereo not shown) [Compound 84] | 7.49
CCC(Nc1ncnc(N)c1C#N)c1cn2ccc(Cl)c2c(=O)n1-c1cccc(F)c1 (stereo not shown) [Compound 86] | 6.86

Q: Output reported pIC50 of the molecule C[S+]([O-])c1c[nH]c2ncnc(N3CCC[C@H]3c3nn4ccc(Cl)c4c(=O)n3-c3cccc(F)c3)c12 (single isomer, unassigned) [Compound 387] on UniProtKB P48736.
A: 8.05

Q: Output reported pIC50 of the molecule O=c1c2c(F)ccn2nc([C@@H]2C[C@H](F)CN2c2ncnc3[nH]cnc23)n1-c1ccccc1 [Compound 132] on UniProtKB P48736.
A: 7.15

Q: Output reported pIC50 of the molecule Cc1nc(N2CCC[C@H]2c2nn3ccc(F)c3c(=O)n2-c2ccccc2)c2nc[nH]c2n1 [Compound 239] on UniProtKB P48736.
A: 7.12

Q: Output reported pIC50 of the molecule Cc1nc(N)nc(N2C[C@H](C)[C@H]2c2nn3ccc(C#N)c3c(=O)n2-c2ccccc2)c1C#N [Compound 499] on UniProtKB P48736.
A: 8.30

###

IC50 values by entry
# subject-of-test: p110α/p85α (Homo sapiens)
# Sequence (P42336 whole entry): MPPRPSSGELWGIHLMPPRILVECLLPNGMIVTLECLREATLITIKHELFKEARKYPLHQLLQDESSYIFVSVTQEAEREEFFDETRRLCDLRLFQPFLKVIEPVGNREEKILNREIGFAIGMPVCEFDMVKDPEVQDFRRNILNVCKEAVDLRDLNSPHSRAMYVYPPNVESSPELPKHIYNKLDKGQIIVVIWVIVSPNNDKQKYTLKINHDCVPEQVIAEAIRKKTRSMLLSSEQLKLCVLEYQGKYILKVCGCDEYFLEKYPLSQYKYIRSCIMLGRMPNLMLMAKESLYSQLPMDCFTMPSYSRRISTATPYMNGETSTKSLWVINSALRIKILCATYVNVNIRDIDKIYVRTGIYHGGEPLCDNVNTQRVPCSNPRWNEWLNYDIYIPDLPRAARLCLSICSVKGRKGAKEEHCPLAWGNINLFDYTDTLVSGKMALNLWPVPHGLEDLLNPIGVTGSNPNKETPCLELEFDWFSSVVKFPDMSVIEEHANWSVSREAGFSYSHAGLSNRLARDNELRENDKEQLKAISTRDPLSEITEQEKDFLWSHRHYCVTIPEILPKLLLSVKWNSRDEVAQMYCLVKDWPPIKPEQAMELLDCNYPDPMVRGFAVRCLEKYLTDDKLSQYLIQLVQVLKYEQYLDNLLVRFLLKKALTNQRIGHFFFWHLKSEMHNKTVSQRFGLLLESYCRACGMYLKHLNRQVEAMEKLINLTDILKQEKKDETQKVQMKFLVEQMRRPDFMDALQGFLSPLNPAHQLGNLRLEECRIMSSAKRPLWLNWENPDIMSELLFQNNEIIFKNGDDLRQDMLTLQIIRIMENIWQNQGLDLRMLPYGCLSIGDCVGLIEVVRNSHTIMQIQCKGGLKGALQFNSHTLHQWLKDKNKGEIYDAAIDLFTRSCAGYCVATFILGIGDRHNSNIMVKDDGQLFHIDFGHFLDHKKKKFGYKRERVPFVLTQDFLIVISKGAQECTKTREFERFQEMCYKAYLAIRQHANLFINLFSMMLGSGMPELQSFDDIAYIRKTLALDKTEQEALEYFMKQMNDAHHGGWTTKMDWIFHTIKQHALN
# Sequence (P27986 whole entry partner): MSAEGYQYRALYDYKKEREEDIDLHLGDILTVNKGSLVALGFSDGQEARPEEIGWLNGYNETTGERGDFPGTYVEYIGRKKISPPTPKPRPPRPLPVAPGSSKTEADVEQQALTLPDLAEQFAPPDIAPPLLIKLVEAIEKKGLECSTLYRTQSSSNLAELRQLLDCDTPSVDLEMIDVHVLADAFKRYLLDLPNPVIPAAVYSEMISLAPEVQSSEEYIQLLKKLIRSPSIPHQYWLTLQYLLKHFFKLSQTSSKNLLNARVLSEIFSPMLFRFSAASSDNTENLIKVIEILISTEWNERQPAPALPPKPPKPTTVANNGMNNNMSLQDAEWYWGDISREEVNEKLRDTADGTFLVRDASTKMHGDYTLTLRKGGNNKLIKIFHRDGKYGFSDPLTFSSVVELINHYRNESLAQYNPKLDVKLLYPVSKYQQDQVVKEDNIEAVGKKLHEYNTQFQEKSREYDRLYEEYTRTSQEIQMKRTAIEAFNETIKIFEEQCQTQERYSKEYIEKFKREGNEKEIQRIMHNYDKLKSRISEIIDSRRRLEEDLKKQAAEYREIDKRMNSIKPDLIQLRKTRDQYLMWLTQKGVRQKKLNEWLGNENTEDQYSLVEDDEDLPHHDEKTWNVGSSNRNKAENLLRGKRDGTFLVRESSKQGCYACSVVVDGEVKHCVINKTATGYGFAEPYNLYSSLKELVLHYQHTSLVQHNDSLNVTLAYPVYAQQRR
# assay-comment: Transcreener KINASE Assay, kinase inhibition of p110α/p85α
# Type: biochemical
# details: read-out: PI3Kα IC50
Field format: number, assumed nM, no unit text.

Solved entries (count: 3):
CC(=O)c1cnc(N)nc1N1CC[C@H]1c1nn2ccc(Cl)c2c(=O)n1-c1ccccc1 [Compound 299] | 2940
C[C@H]1CN(c2nc(N)nc(N)c2C#N)[C@@H]1c1nn2ccc(Cl)c2c(=O)n1-c1ccccc1 [Compound 481] | 558
CC(=O)c1cnc(N)nc1N1C[C@H](C)[C@H]1c1nn2ccc(Cl)c2c(=O)n1-c1ccccn1 [Compound 473] | 921

Q: Give the reported IC50 for this compound. CC(=O)c1cnc(N)nc1N1C[C@H](C)[C@H]1c1nn2ccc(Cl)c2c(=O)n1-c1ccc(F)cc1 [Compound 206]
A: 372

Q: Give the reported IC50 for this compound. C[C@H]1CN(c2nc(N)nc(N)c2C#N)[C@@H]1c1nn2ccc(Cl)c2c(=O)n1-c1ccc(F)cc1 [Compound 480]
A: 648

###

# subject-of-test: p110γ (Homo sapiens, UniProt P48736)
# Sequence (P48736 whole entry): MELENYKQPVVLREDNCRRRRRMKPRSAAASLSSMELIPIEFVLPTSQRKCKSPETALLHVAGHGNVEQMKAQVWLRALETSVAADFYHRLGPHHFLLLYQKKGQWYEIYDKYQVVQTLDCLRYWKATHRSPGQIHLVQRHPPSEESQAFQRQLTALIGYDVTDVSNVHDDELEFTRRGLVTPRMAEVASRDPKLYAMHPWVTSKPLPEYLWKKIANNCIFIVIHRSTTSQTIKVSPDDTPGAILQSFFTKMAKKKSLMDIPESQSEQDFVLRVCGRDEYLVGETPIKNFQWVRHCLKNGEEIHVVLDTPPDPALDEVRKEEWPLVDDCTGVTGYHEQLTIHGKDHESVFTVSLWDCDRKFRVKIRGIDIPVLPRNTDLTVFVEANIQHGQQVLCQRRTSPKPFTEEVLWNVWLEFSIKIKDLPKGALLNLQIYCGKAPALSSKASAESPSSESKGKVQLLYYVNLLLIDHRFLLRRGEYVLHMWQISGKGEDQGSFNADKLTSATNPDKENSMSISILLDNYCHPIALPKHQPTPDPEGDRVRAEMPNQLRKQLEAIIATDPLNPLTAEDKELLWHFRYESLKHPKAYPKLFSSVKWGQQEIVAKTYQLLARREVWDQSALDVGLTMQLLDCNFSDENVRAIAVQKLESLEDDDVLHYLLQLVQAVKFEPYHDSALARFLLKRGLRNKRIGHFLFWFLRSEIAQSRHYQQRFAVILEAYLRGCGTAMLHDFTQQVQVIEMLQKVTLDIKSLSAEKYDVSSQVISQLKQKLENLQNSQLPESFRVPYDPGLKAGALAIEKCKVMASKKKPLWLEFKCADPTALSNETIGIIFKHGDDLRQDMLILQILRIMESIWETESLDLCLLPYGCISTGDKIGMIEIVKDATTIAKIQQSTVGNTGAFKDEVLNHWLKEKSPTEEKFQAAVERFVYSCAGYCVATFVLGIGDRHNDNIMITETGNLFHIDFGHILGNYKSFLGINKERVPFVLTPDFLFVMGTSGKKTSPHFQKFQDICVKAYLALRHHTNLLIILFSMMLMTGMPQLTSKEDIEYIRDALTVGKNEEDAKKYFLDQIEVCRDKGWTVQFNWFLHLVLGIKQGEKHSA
# assay-comment: Transcreener KINASE Assay, kinase inhibition of p110γ
# Type: biochemical
# details: 1 uM test compound
Tick rule met if PI3Kγ IH % @ 1 uM is 70% or greater. Tick rule not met if PI3Kγ IH % @ 1 uM is less than 70%.

C/C(=N\O)c1c[nH]c2ncnc(N3CCC[C@H]3c3nn4ccc(Cl)c4c(=O)n3-c3ccccc3)c12 | rule met
Nc1ccc(-c2n[nH]c3ncnc(N4CC[C@H]4c4nn5ccc(Cl)c5c(=O)n4-c4ccccc4)c23)cn1 | rule not met
COc1ccc(-c2n[nH]c3ncnc(N4CC[C@H]4c4nn5ccc(Cl)c5c(=O)n4-c4ccccc4)c23)cn1 | rule not met

Q: Determine whether this compound has PI3Kγ IH % @ 1 uM no lower than 70%: CC(Nc1nc(N)ncc1C#N)c1cn2ccc(F)c2c(=O)n1-c1ccccc1 (single isomer, unassigned)
A: rule met

Q: Determine whether this compound has PI3Kγ IH % @ 1 uM no lower than 70%: N#Cc1cc2nc(N)nc(N3CCC[C@H]3c3nn4ccc(Cl)c4c(=O)n3-c3ccccc3)n2n1
A: rule not met

Q: Determine whether this compound has PI3Kγ IH % @ 1 uM no lower than 70%: Cc1nc(N)nc(N2CC[C@H]2c2nn3ccc(Cl)c3c(=O)n2-c2ccccc2)n1
A: rule met

Q: Determine whether this compound has PI3Kγ IH % @ 1 uM no lower than 70%: CC(Nc1ncnc2[nH]cc(-c3ccc(N)nc3)c12)c1cc2ncc(Cl)n2c(=O)n1-c1ccccc1 (stereo not shown)
A: rule met
